# target-system: T1, Monomeric human CD48-mmH (human)
# T1 construct: also called soluble CD48 expressed with a myc-myc-hexa-histidine C-terminal tag [mmH]
# T1 chain: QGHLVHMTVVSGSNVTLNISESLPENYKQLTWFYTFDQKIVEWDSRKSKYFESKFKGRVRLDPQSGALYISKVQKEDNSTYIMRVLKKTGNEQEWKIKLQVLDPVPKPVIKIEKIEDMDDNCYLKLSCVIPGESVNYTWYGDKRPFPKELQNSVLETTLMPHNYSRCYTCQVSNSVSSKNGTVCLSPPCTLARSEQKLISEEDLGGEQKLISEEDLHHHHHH
# assay-details: SPR (Biacore T100), 25 C, antibody captured by anti-Fc, monomeric CD48-mmH in solution
attribute-measured: kon (M⁻¹ s⁻¹)
Enter your answer as a number in M⁻¹ s⁻¹; do not include the unit.

Some entries whose results are on file:
H4H1772P (antibody, human IgG4, V domains shown, Human IgG4 Fc (prefix H4H)) VH: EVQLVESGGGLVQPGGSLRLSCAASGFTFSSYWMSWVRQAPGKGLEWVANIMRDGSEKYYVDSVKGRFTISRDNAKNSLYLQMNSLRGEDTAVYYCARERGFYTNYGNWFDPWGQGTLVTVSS VL: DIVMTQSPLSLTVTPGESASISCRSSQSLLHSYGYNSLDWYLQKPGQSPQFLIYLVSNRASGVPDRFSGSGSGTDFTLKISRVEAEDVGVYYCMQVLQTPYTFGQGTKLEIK; 127000
H4H1774P (antibody, human IgG4, V domains shown, Human IgG4 Fc (prefix H4H)) VH: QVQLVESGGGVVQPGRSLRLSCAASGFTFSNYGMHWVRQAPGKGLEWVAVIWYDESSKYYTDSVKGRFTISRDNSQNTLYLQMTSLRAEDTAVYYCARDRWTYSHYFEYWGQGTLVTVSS VL: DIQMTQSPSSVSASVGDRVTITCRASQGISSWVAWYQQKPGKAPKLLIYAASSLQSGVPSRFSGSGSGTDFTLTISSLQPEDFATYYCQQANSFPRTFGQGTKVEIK; 104000

# input for lookup
# kon of H4H1763N (antibody, human IgG4, V domains shown, Human IgG4 Fc (prefix H4H)) VH: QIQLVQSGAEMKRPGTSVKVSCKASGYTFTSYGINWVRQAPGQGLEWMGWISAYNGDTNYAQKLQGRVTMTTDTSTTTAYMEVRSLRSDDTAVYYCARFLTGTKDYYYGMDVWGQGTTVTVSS VL: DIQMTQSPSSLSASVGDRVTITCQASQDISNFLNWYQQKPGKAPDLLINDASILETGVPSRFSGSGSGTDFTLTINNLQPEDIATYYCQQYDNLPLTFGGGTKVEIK = 769000
